This listing pairs molecules with measured melting point.
Where a name gives a salt, the structure may show the parent alone.

Past entries and their recorded results:
molecule	melting point
C=Cc1sc[n+](CC(=O)c2cc(C(C)(C)C)c(O)c(C(C)(C)C)c2)c1C (as salt: bromide)	208 to 209 °C
C#CC[n+]1cscc1C.[Br-]	213 to 215 °C

IN: Return reported melting point; argument: `C=Cc1sc[n+](CC(=O)c2ccccc2)c1C.[Br-]`
OUT: 176 to 177 °C

IN: Data request, read-out melting point, for `C#CC[n+]1ccsc1.[Br-]`
OUT: 64 to 66 °C

IN: # lookup: melting point of `C#CC[n+]1csc(C)c1.[Br-]`
OUT: 127 to 129 °C

IN: Consider the molecule shown here: Cc1sc[n+](CC(=O)c2cc(C(C)(C)C)c(O)c(C(C)(C)C)c2)c1C (as salt: bromide) What is its recorded melting point?
OUT: 243 to 244 °C (dec.)

* * *

# study.target: AGE-BSA crosslinked to collagen
# experiment.description: Cross-link Breaking Assay (sandwich enzyme immunoassay)
# Type: biochemical
# reported.conditions: detection with anti-BSA antibody; read-out: IC50 (mM) Anti-BSA
hey, just use y if measured IC50 is less than 30 mM, otherwise n

Observe how each entry below is paired with its result.
smiles.notation	study.target	assigned.category
COC(=O)C[n+]1csc2ccccc21.[Br-]	AGE-BSA crosslinked to collagen	y
Cc1c(CCO)sc[n+]1CC(N)=O.[Br-]	AGE-BSA crosslinked to collagen	y
Cc1csc[n+]1CC(=O)c1ccccc1.[Br-]	AGE-BSA crosslinked to collagen	y

IN: Here's an entry: `Cc1csc[n+]1CC(N)=O.[Br-]` . Is its IC50 below 30 mM?
OUT: n

IN: Consider `NC(=O)C[n+]1csc2ccccc21.[Br-]` . Does its IC50 lie strictly below 30 mM?
OUT: y

* * *

# System: AGE-BSA crosslinked to collagen
# experiment.description: Cross-link Breaking Assay (sandwich enzyme immunoassay)
# Format: biochemical
# reported.conditions: anti-AGE antibody; at 30 mM
assay.endpoint: Breaking Anti-AGE

IN: Any idea what Breaking Anti-AGE was measured for `Cc1sc[n+](CC(=O)c2ccccc2)c1C.[Br-]` ?
OUT: 56%/ND (30)

IN: Record request: Breaking Anti-AGE value, item `COC(=O)C[n+]1csc(C)c1.[Br-]`
OUT: 72%

IN: I am curious: what Breaking Anti-AGE value has been reported for `Cc1csc[n+]1CC(=O)c1ccccc1.[Br-]` ?
OUT: 68%
